Catalogue of molecules with associated IC50
experimental system: CXCR4 (Jurkat cells expressing CXCR4) (Homo sapiens)
Construct: Jurkat cells expressing CXCR4; endogenous in cells
assay text: Chemokine (CXCL12-AF647) binding inhibition assay
settings: CXCL12-AF647 25 ng/mL, read-out: IC50 CXCL-12 binding Jurkat

Some solved cases for reference:
molecule	IC50
CN1CCN(c2cccc3[nH]c(CN4CCCC4c4ncccc4Cl)nc23)CC1 (stereo not drawn)	0.01 to 100 nM
c1ccc(N2CCN(c3c(CN4CCCC4c4ccccn4)nc4ccccn34)CC2)cc1 (stereo not drawn)	100 to 1000 nM
OCc1c(CN2CCCC2c2ccccn2)nc2ccccn12 (stereo not drawn)	100 to 1000 nM
Cc1cccnc1C1CCCN1Cc1cn2c(N3CCN(C4CC4)CC3)cccc2n1 (stereo not drawn)	100 to 1000 nM
CN1CCN(c2c(CN3CCCC3c3ccccn3)nc3cc(F)ccn23)CC1 (stereo not drawn)	0.01 to 100 nM

[in] Any idea what IC50 came out for Cc1cccnc1C1CCCN1Cc1nc2ccccn2c1N1CCN(C)CC1 (stereo not drawn) on CXCR4 (Jurkat cells expressing CXCR4) (Homo sapiens)?
[out] 0.01 to 100 nM

====

assay text: in vitro
settings: human, Caco-2, pH 7.4
Listing of recorded Papp A→B at 90 min, 10 μM by entry.

Here's what some known entries look like.
molecule	reported metric	endpoint result
CN1CCN(c2c(CN3CCCC3c3ccc(F)cn3)nc3ccccn23)CC1 (centres unmarked) [Compound I-76]	Papp A→B at 90 min, 10 μM	10 to 30 ×10⁻⁶ cm/s
Cc1cccnc1C1CCCN1Cc1nc2cccc(N3CCN(C)CC3)n2c1C (centres unmarked) [Compound I-46]	Papp A→B at 90 min, 10 μM	0.1 to 10 ×10⁻⁶ cm/s

[in] Given Cc1cccnc1C1CCCN1Cc1nccn1Cc1cccnc1 (centres unmarked) [Compound I-88] , state its recorded Papp A→B at 90 min, 10 μM.
[out] 10 to 30 ×10⁻⁶ cm/s

[in] Another molecule to check: N#CCCc1cccc2nc(CN3CCCC3c3ccccn3)cn12 (centres unmarked) [Compound I-84]
[out] 0.1 to 10 ×10⁻⁶ cm/s

[in] Cool, now Cc1cccnc1C1CCCN1Cc1nccn1Cc1ccccn1 (centres unmarked) [Compound I-89]
[out] 10 to 30 ×10⁻⁶ cm/s

====

experimental system: CXCR4 (Jurkat cells expressing CXCR4) (Homo sapiens, UniProt P61073)
Construct: Jurkat cells expressing CXCR4; endogenous in cells
Sequence (P61073 whole entry): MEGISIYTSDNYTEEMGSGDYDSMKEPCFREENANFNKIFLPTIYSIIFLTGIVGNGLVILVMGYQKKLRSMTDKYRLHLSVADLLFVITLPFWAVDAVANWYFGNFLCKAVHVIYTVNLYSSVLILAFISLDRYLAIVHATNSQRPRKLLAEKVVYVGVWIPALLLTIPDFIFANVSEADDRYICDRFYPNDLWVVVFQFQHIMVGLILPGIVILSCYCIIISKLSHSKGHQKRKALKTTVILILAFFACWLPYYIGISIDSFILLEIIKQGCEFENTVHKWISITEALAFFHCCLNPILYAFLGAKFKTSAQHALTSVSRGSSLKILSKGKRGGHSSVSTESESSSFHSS
assay text: Chemokine (CXCL12-AF647) binding inhibition assay
settings: CXCL12-AF647 25 ng/mL, read-out: IC50 CXCL-12 binding Jurkat
pIC50: −log10 of the molar value.
Items are presented alongside their recorded pIC50.

Before answering, review these 5 worked examples.
compound	reported metric	endpoint result
c1ccc(C2CCCN2Cc2nc3ccccn3c2N2CCN(c3ccccn3)CC2)nc1 (stereo not shown)	pIC50	7.00 to 11.00
Cc1cccnc1CN1CCCC1c1nc2cccc(N3CCN(C)CC3)c2[nH]1 (stereo not shown)	pIC50	7.00 to 11.00
CN1CCN(c2cccc3[nH]c(CN4CCCC4c4nccn4C)nc23)CC1 (stereo not shown)	pIC50	6.00 to 7.00
Cc1cccnc1CN1CCCC1c1cn2c(N3CCN(CC(F)(F)F)CC3)cccc2n1 (stereo not shown)	pIC50	≤ 6.00
Cc1cccnc1C1CCCN1Cc1cccc(C(=O)Nc2ccncc2)n1 (stereo not shown)	pIC50	6.00 to 7.00

Next, consider the following compound.
[in] Quick one: pIC50 for Cc1cccnc1C1CCCN1Cc1nccn1CC1CCN(C)CC1 (stereo not shown) ?
[out] 7.00 to 11.00
